// data source = paper PMC7819943

Assayed Target: OsSMF1 (Oryza sativa, UniProt Q6ZLB0 1-436)
Sequence: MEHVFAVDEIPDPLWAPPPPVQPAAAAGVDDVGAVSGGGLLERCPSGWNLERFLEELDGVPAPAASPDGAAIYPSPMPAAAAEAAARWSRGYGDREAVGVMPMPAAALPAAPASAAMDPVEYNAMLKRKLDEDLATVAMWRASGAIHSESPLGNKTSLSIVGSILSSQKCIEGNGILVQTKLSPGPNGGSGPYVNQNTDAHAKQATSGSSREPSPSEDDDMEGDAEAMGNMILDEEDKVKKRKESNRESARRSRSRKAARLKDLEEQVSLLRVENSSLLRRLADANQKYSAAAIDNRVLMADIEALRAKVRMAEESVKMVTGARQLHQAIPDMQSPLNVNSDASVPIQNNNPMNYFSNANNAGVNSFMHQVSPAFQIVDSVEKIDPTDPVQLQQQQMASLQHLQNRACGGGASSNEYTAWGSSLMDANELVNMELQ
Test Method Notes: protein-binding microarray (RPBM); PBS, 2% BSA, 51.3 ng/ul salmon testes DNA, 50 uM zinc acetate, 200 nM TF, 25 C, 1 h; high values mean tight binding
Condition Set: protein: recombinant; tags: N-terminal polyhistidine and DsRed monomer fusion (pET32a); chain copies: 2; label: CyDye5-dUTP incorporated in the synthesized complementary strand; 3' TTTTT single-stranded linker to array surface; dsDNA, one strand shown
Over roughly 39,000 sequences, “fluorescence intensity (a.u.)” has its median near 4,300; the highest 2% begin near 39,000. For the sample, the highest values were picked, then their nearest neighbours and some sequences at random.
Observable: binding signal

Below, 3 sequences whose answers are already recorded.
• GCGGCGGTGTCTCGCGCCGCCAGCCTACAAATGGGGAGAGCGGAGTCACCTAGTGCAG = 40300 fluorescence intensity (a.u.)
• TCCCGTGCAGCCGTGGCAGCCGCGCGCTGCTCGAGTCCGGCGGAGTCACCTAGTGCAG = 4470 fluorescence intensity (a.u.)
• CTAAAACCACATATAAGGAGTGTCCTGTAGCAAAATTTCCCGGAGTCACCTAGTGCAG = 4200 fluorescence intensity (a.u.)

Task: What does the record list as binding signal for CGAGAGGTACCGCGCGCTGCCGGCGGAGAAGCGGGCGAGGCGGAGTCACCTAGTGCAG ?
Output: 41500 fluorescence intensity (a.u.)

Task: Note, next up: GGCGCCAGCCCCGGTGCCGGGGAGTGTGGCGGAGCGGGAGCGGAGTCACCTAGTGCAG
Output: 3910 fluorescence intensity (a.u.)

Task: Next up: GAAGAGGGGAGGGAGCTCCAAAAGGGCGAGAAAGTAAGCGCGGAGTCACCTAGTGCAG
Output: 39400 fluorescence intensity (a.u.)
